- Test system: Axl (Homo sapiens)
- Sequence (P30530 26-894): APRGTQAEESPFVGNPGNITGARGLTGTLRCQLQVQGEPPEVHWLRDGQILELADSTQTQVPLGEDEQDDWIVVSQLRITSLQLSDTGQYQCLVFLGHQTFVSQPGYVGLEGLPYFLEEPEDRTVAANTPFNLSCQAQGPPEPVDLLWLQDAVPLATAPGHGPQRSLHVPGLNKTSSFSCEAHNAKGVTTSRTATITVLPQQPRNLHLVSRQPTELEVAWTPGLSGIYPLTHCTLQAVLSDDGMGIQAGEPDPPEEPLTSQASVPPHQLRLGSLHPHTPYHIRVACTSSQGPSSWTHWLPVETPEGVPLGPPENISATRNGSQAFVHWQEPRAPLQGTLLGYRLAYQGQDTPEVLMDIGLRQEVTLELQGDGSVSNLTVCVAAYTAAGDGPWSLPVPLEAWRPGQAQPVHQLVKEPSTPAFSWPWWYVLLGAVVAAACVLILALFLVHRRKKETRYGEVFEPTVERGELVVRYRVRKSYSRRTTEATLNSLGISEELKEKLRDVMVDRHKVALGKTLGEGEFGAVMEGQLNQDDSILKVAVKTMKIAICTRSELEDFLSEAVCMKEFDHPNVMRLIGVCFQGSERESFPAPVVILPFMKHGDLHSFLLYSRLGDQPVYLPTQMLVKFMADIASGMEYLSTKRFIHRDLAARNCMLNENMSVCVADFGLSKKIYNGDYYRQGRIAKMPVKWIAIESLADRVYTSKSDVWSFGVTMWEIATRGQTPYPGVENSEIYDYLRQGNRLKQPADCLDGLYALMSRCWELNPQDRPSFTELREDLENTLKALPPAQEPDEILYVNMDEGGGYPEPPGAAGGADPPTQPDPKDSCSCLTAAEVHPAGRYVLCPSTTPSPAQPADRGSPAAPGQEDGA
- Experiment description: Axl NanoBRET intracellular kinase assay (intracellular binding, Cell Binding)
- Design: host or cells: HEK-293
- Condition context: HEK-293 cells transfected with Axl-NanoLuc fusion vector; 0.35 μM K-5 NanoBRET tracer
Measured IC50, listed per entry for reference.

Lookup result for "CC(C)(O)c1ccc(-c2n[nH]c3ncc(-c4ccc5c(c4)CCN(C4CCCC4)CC5)cc23)cc1C(F)(F)F" ; measured IC50: 100 to 1000 nM

Lookup result for C[C@@H]1CCCN1C1(C)CCc2ccc(-c3cnc4[nH]nc(-c5ccc(S(N)(=O)=O)c(Cl)c5)c4c3)cc2CC1 (stereo partly shown) ; measured IC50: < 100 nM

Lookup result for C[C@@H]1CCCN1C1CCc2ccc(-c3cnc4[nH]nc(-c5ccc(C(C)(C)O)c(Cl)c5)c4c3)cc2CC1 (stereo partly shown) ; measured IC50: < 100 nM

Lookup result for C[C@@H]1CCCN1C1CCc2ccc(-c3cnc4[nH]nc(-c5ccc(C6(O)COC6)c(Cl)c5)c4c3)cc2CC1 (stereo partly shown) ; measured IC50: > 1000 nM

Lookup result for C[C@H]1CCCN1C1CCc2ccc(-c3cnc4[nH]nc(-c5ccc(C(C)(C)O)c(Cl)c5)c4c3)cc2CC1 (stereo partly shown) ; measured IC50: < 100 nM

Lookup result for C[C@@H]1CCCN1C1(C)CCc2ccc(-c3cnc4[nH]nc(-c5ccc(C(=O)N[C@@H]6CCOC6)cc5)c4c3)cc2CC1 (stereo partly shown) ; measured IC50: < 100 nM

Lookup result for C[C@@H]1CCCN1C1(C)CCc2ccc(-c3cnc4[nH]nc(-c5ccc(S(=O)(=O)C(F)(F)F)cc5)c4c3)cc2CC1 (stereo partly shown) ; measured IC50: > 1000 nM
